From: PubChem BioAssay (NCI)

# Tested on: NCI/ADR-RES ovarian
# TEST_DESCRIPTION: NCI-60 one-dose screen, 48 h (100 = growth as untreated, 0 = no growth, -100 = all killed)
# MEASUREMENT_CONDITIONS: 10 µM unless noted
The panel holds about 83,000 compounds, 20% with a hit somewhere; the sample as a whole holds those more often.
growth listing for selected compounds.
METRIC_NAME: growth (%)

{"COMPOUND": "O=C(Nc1ccc(Br)cc1F)c1cc(Cl)ccc1O", "METRIC_NAME": "growth", "RECORDED_RESULT": 5.2}
{"COMPOUND": "COc1nc2c(c(=O)n1C)N=C1c3ccccc3C(=O)C1C(c1ccccc1)N2 (stereo not drawn)", "METRIC_NAME": "growth", "RECORDED_RESULT": 73.3}
{"COMPOUND": "Cc1ccc(Nc2nc(N)c3ccccc3n2)cc1Cl", "METRIC_NAME": "growth", "RECORDED_RESULT": 45.5}
{"COMPOUND": "COc1cc(-c2c3c(cn2S(=O)(=O)c2ccccc2)-c2nc(N)sc2CC3)cc(OC)c1OC", "METRIC_NAME": "growth", "RECORDED_RESULT": 14.9}
{"COMPOUND": "COc1ccc(CCN2C(=O)/C(=C/c3ccc(C4Oc5ccccc5C5CC(c6cccc(OC)c6)=NN54)cc3)SC2=S)cc1 (stereo not drawn)", "METRIC_NAME": "growth", "RECORDED_RESULT": 104}
{"COMPOUND": "NCCNc1nc2ccc(F)cc2c2c(=O)c3cc(F)ccc3sc12", "METRIC_NAME": "growth", "RECORDED_RESULT": 61.7}
{"COMPOUND": "COc1ccc(/C=C2/SC(=O)N(CC(=O)N3CCN(c4cc5c(cc4F)c(=O)c(C(=O)O)cn5C4CC4)CC3)C2=O)cc1", "METRIC_NAME": "growth", "RECORDED_RESULT": 99.4}
{"COMPOUND": "CCCCOCc1cc(CN2CCN(C)CC2)c(O)c2ncccc12", "METRIC_NAME": "growth", "RECORDED_RESULT": 5.45}
{"COMPOUND": "CCn1c(Cc2ccccc2Nc2c(Cl)cccc2Cl)nnc1SCC(=O)NN1C(=O)/C(=C/c2cccc(OC)c2OC)SC1=S", "METRIC_NAME": "growth", "RECORDED_RESULT": 104}
{"COMPOUND": "Nc1ccc(-c2nn3c(CCC(=O)c4nc5ncccc5[nH]4)nnc3s2)c(O)c1", "METRIC_NAME": "growth", "RECORDED_RESULT": 93.8}
{"COMPOUND": "O=C(Nc1ccc(F)cc1F)c1cc(I)ccc1O", "METRIC_NAME": "growth", "RECORDED_RESULT": 8.58}
{"COMPOUND": "O=C(Nc1ccc(N2CCNCC2)cn1)c1[nH]ncc1Nc1ncnc2sccc12", "METRIC_NAME": "growth", "RECORDED_RESULT": 91}
{"COMPOUND": "CCOC(=O)c1sc(-c2ccc(OS(=O)(=O)c3ccccc3[N+](=O)[O-])c(C=O)c2)nc1C", "METRIC_NAME": "growth", "RECORDED_RESULT": 61.6}
